Taken from PubChem BioAssay AID1224865.

Each item that follows carries a reported activity change.
Target: Hepatocyte nuclear factor 4-alpha (Homo sapiens)
Assay: change in binding of human HNF4A to DNA, primary screen, biochemical, fluorescence polarization, FITC-DNA (AID 1224865)
Conditions: 1 h, at 10 µM, active compounds read high
Out of some 360,000 compounds screened, about 1,100 (0.31%) were called active. Many of the other results were omitted from the sample, so actives are more common in it than they were.

See these solved cases before continuing.
{"columns": ["MOL_SMILES", "activity change"],
 "data": [
  ["CC1CCN(c2ccc3c(c2)S(=O)(=O)c2cc(C(=O)O)ccc2C3=O)CC1", "14.3% (inactive)"],
  ["Cc1ccc(CNC(=O)c2cccc3c2C(=O)c2ccc(N4CCC(C)CC4)cc2S3(=O)=O)cc1", "45.8% (active)"],
  ["Cc1ccccc1OCCC(=O)Nc1c(C)n(C)n(-c2ccccc2)c1=O", "-0.09% (inactive)"],
  ["COc1cccc(-c2ccc3c(c2)S(=O)(=O)c2cccc(C(=O)O)c2C3=O)c1OC", "1.88% (inactive)"],
  ["O=C1/C(=C/c2coc3ccc(O)cc3c2=O)SC(=S)N1c1ccccc1", "55.6% (active)"],
  ["COc1ccc(Nc2cc(Sc3ccc(OC)cc3)ncn2)cc1", "7.05% (inactive)"],
  ["O=C(Nc1ccccc1)c1ccccc1Br", "-2.18% (inactive)"],
  ["COc1ccc(CCNC2=CC(=O)CC(C)(C)C2)cc1", "2.16% (inactive)"]
]}

Fill in activity change for Cc1nc(SCC(=O)N2CCc3ccccc3C2)c2c(C)c(C)sc2n1 tested with Hepatocyte nuclear factor 4-alpha (Homo sapiens). -0.31% (inactive)

Send back Hepatocyte nuclear factor 4-alpha (Homo sapiens) activity change of CN1/C(=c2/s/c(=C3/C(=O)N(c4ccccc4)NC3=Nc3ccccc3)n(C)c2=O)C(C)(C)c2ccccc21 only. 66.2% (active)

* * *

Measured activity change by item
Target: Hepatocyte nuclear factor 4-alpha (Homo sapiens) (UniProt P41235)
Sequence (P41235 whole entry, looked up): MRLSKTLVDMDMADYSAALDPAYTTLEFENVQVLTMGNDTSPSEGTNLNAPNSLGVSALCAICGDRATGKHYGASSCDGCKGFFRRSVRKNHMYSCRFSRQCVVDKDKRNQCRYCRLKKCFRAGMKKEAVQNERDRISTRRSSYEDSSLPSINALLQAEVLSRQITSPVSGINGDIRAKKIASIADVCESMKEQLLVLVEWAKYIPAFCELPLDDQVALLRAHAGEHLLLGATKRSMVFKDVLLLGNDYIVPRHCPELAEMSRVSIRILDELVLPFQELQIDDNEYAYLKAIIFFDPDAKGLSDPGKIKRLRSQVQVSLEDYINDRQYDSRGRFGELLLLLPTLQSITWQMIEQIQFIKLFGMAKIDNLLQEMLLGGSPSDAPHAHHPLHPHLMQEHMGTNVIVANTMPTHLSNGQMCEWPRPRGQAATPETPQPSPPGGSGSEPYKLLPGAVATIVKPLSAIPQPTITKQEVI
Experiment: change in binding of human HNF4A to DNA, primary screen, biochemical, fluorescence polarization, FITC-DNA (AID 1224865)
Conditions: 1 h, at 10 µM, active compounds read high
Screen size: about 360,000 compounds; about 1,100 (0.31%) were called active. This excerpt belongs to a sample that is enriched for actives.
Numeric answer only, unit % assumed.

Please review the entries below; each comes with its answer.
{"columns": ["MOLECULE", "DISPLAY_UNIT", "activity change"],
 "data": [
  ["COCCNC(=O)c1cc2c(Br)ccc(Br)c2nc1N", "%", -2.58],
  ["CC(=O)c1c(C)[nH]c(C(=O)OCC(=O)NCCC(C)C)c1C", "%", -3.31],
  ["Cc1cccc(C)c1NC(=O)C(c1ccc(C(F)(F)F)cc1)n1c(=O)c(-c2ccco2)nc2ccccc21 (stereo unspecified)", "%", 26.7],
  ["Cc1ccc(CSCC(=O)N(C)CC(=O)Nc2cccc(F)c2)cc1", "%", -2.3]
]}

Let me know recorded activity change for CC1=CC2=NC(=O)/C(=C/c3coc4ccccc4c3=O)C(=N)N2O1 , thanks. 6.6

Specify reported activity change for the molecule shown: CCCN(CCC)c1nc2c(C)cccn2c(=O)c1/C=C1/SC(=S)N(Cc2ccco2)C1=O 8.02

Fill in reported activity change for this entry: CC[n+]1cc(C)ccc1/C=C/c1ccc(N(C)C)cc1 76.1

Answer with the recorded activity change of COc1cc(O)c2c(=O)c3c(O)c(O)ccc3oc2c1OC only. 3.57

Respond only with activity change recorded for Cn1cccc1/C=C1\SC(=S)N(NC(=O)c2ccc(Cl)cc2)C1=O 74.6

Read off the recorded activity change for CCOC(=O)C1CCN(C(=O)C2CCN(S(=O)(=O)CC)CC2)CC1 -4.66

Kindly indicate its recorded activity change. Item: COc1ccc(CCNC(=O)CN(C)S(=O)(=O)c2ccc3nc(C)sc3c2)cc1OC 3.34

Output activity change of CN(CC(=O)Nc1cccc(F)c1)C(=O)CC1CCCC1 -0.01

Indicate the recorded activity change value for this molecule: CC(C)(C)NC(=O)c1ccc(Cn2cc(C(F)(F)F)ccc2=O)cc1 -4.39

Look up and state reported activity change for C[C@@H]1CN([C@H](C)CO)C(=O)c2cc(Br)cnc2O[C@@H]1CN(C)Cc1cncnc1 3.08

Entry O=[N+]([O-])c1ccc(N=NNc2ccc([N+](=O)[O-])cc2)cc1 needs its activity change filled in; supply it. 54.8

* * *

Biological target: Hepatocyte nuclear factor 4-alpha (Homo sapiens) (UniProt P41235)
Test: change in binding of human HNF4A to DNA, primary screen, biochemical, fluorescence polarization, FITC-DNA (AID 1224865)
Settings: 1 h, at 10 µM
The campaign covered roughly 360,000 compounds. About 1,100 (0.31%) were called active. No stated cut-off is given here; in the data, active means activity change above about 30% (passing the limit was not always enough); inactive means the rest. The sample holds actives, similar compounds and a random draw of the others, so the mix is not that of the screen.
Please state which outcome applies, choosing from Y for active, N for inactive

Solved cases (5 shown):
{"columns": ["COMPOUND", "QUALITATIVE_LABEL"],
 "data": [
  ["Cc1ccc(-c2cnc(C(O)c3cc(Cl)cc(Cl)c3)[nH]2)cc1 (configuration not stated)", "N"],
  ["N/C(=N\\S(=O)(=O)c1ccc(Cl)cc1)N1CCOCC1", "N"],
  ["Cc1c(C(=O)Nc2cccc(Cl)c2)cn2c(nc3ccccc32)c1C#N", "N"],
  ["Cc1ccc(C(=O)OCC(=O)NC2CCCCCCC2)cc1C", "N"],
  ["Cc1nc(-c2ccccc2)cn2c1nc1ccccc12", "Y"]
]}

Look up the recorded call for Cc1cccc2cc3c(N)c(C(=O)N4CCCc5ccccc54)sc3nc12 in this test. Y

Per the records of this test, what outcome belongs to CCn1c(/C=C/c2ccc([N+](=O)[O-])o2)nc2ccccc2c1=O ? Y

What did the test return for O=C(CCN1C(=O)/C(=C/c2cccs2)SC1=S)NNC(=O)c1cccc(O)c1 ? Y

Hi, sorry to bother you, what did the test record for O=C(c1ccc[nH]c1=S)N1CCN(S(=O)(=O)c2ccc(Br)cc2Cl)CC1 ? N

Entry CCOc1ccc(/C=C(/NC(=O)c2ccccc2)C(=O)NCCC(=O)O)cc1 : call = ? N

Look up the recorded call for CCCn1nc(C(=O)N2CCCc3ccccc32)c2ccccc2c1=O in this test. N

Record lookup: outcome of this test for Cc1ccc2nc(-c3cccnc3)c(NC3CCCC3)n2c1 ? N

Hello, I am checking results. What call was entered for COc1ccc(CCNS(=O)(=O)c2cn(C)nc2C)cc1 ? N

Write down the call the test reported for this compound. Item: COc1cccc(/C=C/C(=O)OCC(=O)N2CCCc3ccccc32)c1 N

Hi, do you know how COc1cccc(-c2nc3nc(C)cc(C)n3c2NC2CCCCC2)c1 came out in this test? N

Outcome logged for Cn1c2ccccc2c2cc(/C=C(\NC(=O)c3ccccc3)C(=O)NCC(=O)O)ccc21 in this assay: Y

Call for entry O=C1CSC(c2cccc(F)c2)N1c1ccc(O)cc1 (configuration not stated) : N

Give the logged outcome of this assay for the following compound: COc1ccccc1CCNC(=O)CN1C(=O)NC2(CCCC2)C1=O N

* * *

Target: Hepatocyte nuclear factor 4-alpha (Homo sapiens)
Test: change in binding of human HNF4A to DNA, primary screen, biochemical, fluorescence polarization, FITC-DNA (AID 1224865)
Conditions: 1 h, at 10 µM, active compounds read high
The whole screen tested about 360,000 compounds, of which about 1,100 (0.31%) were called active. Shown is part of a subset that was picked to be rich in actives.
OBSERVED_PROPERTY: activity change (%)
Field: numeric (%). Do not append units.

Consider the worked cases shown below.
{"columns": ["MOLECULE", "activity change [%]"],
 "data": [
  ["Cc1nc2ccccc2nc(=O)c1NNc1ccc([N+](=O)[O-])cc1", 71],
  ["CC(=O)Nc1ccc(S(=O)(=O)N2CCC(C(=O)NC3CC3)CC2)cc1", -2.11],
  ["CCc1ccc2oc(=O)cc(CN3CCCCC3C)c2c1 (stereo unspecified)", 39.9],
  ["CCCCSCCCNC(=O)C1CCC(CNS(=O)(=O)c2ccc(NC(C)=O)cc2)CC1 (stereo unspecified)", 2.47],
  ["COc1ccc(/C(C)=N/N2CCOCC2)c(O)c1", 1.11],
  ["Fc1cccc(Cc2c(-c3cccc(Cl)c3)nc3ccc(Br)cn23)c1", 42.3]
]}

Give me measured activity change, please, for this molecule: O=C(COC(=O)/C=C/c1cccc(Cl)c1)NCCc1ccccc1 1.96

Note activity change for the molecule shown: Cc1sc2nc(-c3ccccc3F)oc(=O)c2c1C 0.82

* * *

Molecular target: Hepatocyte nuclear factor 4-alpha (Homo sapiens)
Assay: change in binding of human HNF4A to DNA, primary screen, biochemical, fluorescence polarization, FITC-DNA (AID 1224865)
Conditions: 1 h, at 10 µM, active compounds read high
Among all 360,000 compounds or so, about 1,100 (0.31%) were called active. This excerpt belongs to a sample that is enriched for actives.
// values below are reported activity change
Field: numeric (%). Do not append units.

Solved cases below.
{"columns": ["MOLECULE", "MEASURED_TARGET", "DISPLAY_UNIT", "activity change"],
 "data": [
  ["NC(=O)Cn1nc([N+](=O)[O-])nc1Oc1ccc(Br)cc1", "Hepatocyte nuclear factor 4-alpha (Homo sapiens)", "%", 3.81],
  ["CSc1sc(C)cc1C1C(C#N)=C(N)N(c2cccnc2)C2=C1C(=O)CCC2 (configuration not stated)", "Hepatocyte nuclear factor 4-alpha (Homo sapiens)", "%", -3.92],
  ["N#Cc1ccccc1NC(=O)COc1c(Br)cc(Br)c2cccnc12", "Hepatocyte nuclear factor 4-alpha (Homo sapiens)", "%", -0.16]
]}

Given the molecule CCc1ccc2nc3sc(C(=O)Nc4nnc(CC)s4)c(N)c3cc2c1 , write its reported activity change. 45.1

Indicate the recorded activity change value for this molecule: CCc1ccc(CN2C(=O)c3ccccc3C2C(=O)NCC2CCCO2)cc1 (configuration not stated) 0.41

Output measured activity change for this item: O=S(=O)(Cc1ccccc1)c1nc2ccccc2n1Cc1ccccn1 -0.31
